Where do these numbers come from? They come from paper PMC8842224.

tgt: human A1AR (Homo sapiens, UniProt P30542)
Sequence (P30542 1-326): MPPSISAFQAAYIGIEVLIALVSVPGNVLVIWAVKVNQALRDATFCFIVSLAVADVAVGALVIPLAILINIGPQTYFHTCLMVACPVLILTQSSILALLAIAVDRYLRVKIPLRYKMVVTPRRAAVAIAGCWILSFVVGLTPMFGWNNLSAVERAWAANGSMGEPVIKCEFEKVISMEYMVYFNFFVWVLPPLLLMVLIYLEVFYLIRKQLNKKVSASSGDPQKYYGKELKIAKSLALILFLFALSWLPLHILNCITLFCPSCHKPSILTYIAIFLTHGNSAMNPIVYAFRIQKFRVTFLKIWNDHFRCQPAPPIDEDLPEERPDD
experimental_conditions: read-out: hA1 Ki; displacement of specific [3H]DPCPX binding, human CHO cells, ± SEM, n = 3
pKi: −log10 of the molar value.
readout_name: pKi

| compound | measurement |
| --- | --- |
| CNc1nc(-c2ccccc2)c(C#N)c(-c2ccccc2F)n1 [19d] | 7.53 |
| CNc1nc(-c2ccccc2)c(C#N)c(-c2cc(Cl)cc(Cl)c2)n1 [19aj] | 7.57 |
| CNc1nc(-c2ccccc2)c(C#N)c(-c2ccc(OC)cc2)n1 [19ab] | 7.24 |
| COc1ccc(-c2nc(N)nc(-c3ccccc3)c2C#N)c(OC)c1 [18q] | 8.40 |
| CCNc1nc(-c2ccccc2)c(C#N)c(-c2cc(Cl)cc(Cl)c2)n1 [19ak] | 6.87 |
| N#Cc1c(-c2ccccc2)nc(N)nc1-c1cccc(O)c1 [18h] | 8.83 |
